# Tested on: KURAMOCHI
# measurement notes: drug sensitivity score (DSS2) on cancer cell count; higher = more sensitive; extreme values may be limits of the assay
# assay setup: co-cultured fibroblast: WI38; 72 h
Tick T if drug sensitivity score is 2 DSS or greater. Tick F if drug sensitivity score is less than 2 DSS.

Known results for compounds:
C=CCN(/C=C1/C(=O)O[C@H](COC)[C@@]2(C)C1=C(O)C(=O)C1=C2[C@H](OC(C)=O)C[C@]2(C)C(=O)CC[C@@H]12)CC=C    F
CC(C)C[C@H](NC(=O)[C@@H](COC(C)(C)C)NC(=O)[C@H](Cc1ccc(O)cc1)NC(=O)[C@H](CO)NC(=O)[C@H](Cc1c[nH]c2ccccc12)NC(=O)[C@H](Cc1cnc[nH]1)NC(=O)[C@@H]1CCC(=O)N1)C(=O)N[C@@H](CCCNC(=N)N)C(=O)N1CCC[C@H]1C(=O)NNC(N)=O    F
Cc1ccc(=O)n(-c2ccccc2)c1    F
CCC1=C[C@@H]2CN(C1)Cc1c([nH]c3ccccc13)[C@@](C(=O)OC)(c1cc3c(cc1OC)N(C)[C@H]1[C@@](O)(C(=O)OC)[C@H](OC(C)=O)[C@]4(CC)C=CCN5CC[C@]31[C@@H]54)C2    T
O=C(Nc1cc(Cl)cc2c1[nH]c1cnccc12)c1cccnc1    T

**Query** Hello, I need to know if Cn1ncc(Cl)c1-c1cc(C(=O)N[C@H](CN)Cc2cccc(F)c2)sc1Cl has measured drug sensitivity score not below 2 DSS. Thanks!
**Result** F

**Query** Hello, I need to know if CCOCc1nc2c(N)nc3ccccc3c2n1CC(C)(C)O has measured drug sensitivity score not below 2 DSS. Thanks!
**Result** F

**Query** Hello, I need to know if C#Cc1cccc(Nc2ncnc3cc4c(cc23)OCCOCCOCCO4)c1 has measured drug sensitivity score not below 2 DSS. Thanks!
**Result** F

**Query** Hello, I need to know if CCCOc1ccn2c(C(C)=O)cc(-c3ccccc3S(C)(=O)=O)c2c1 has measured drug sensitivity score not below 2 DSS. Thanks!
**Result** F

**Query** Hello, I need to know if CCN(CC)CCCC(C)Nc1c2ccc(Cl)cc2nc2ccc(OC)cc12 (stereo not given) has measured drug sensitivity score not below 2 DSS. Thanks!
**Result** T

**Query** Hello, I need to know if CNCc1ccc(-c2[nH]c3cc(F)cc4c3c2CCNC4=O)cc1 has measured drug sensitivity score not below 2 DSS. Thanks!
**Result** T

**Query** Hello, I need to know if CC(C)c1cc(-c2n[nH]c(=O)n2-c2ccc3c(ccn3C)c2)c(O)cc1O has measured drug sensitivity score not below 2 DSS. Thanks!
**Result** T

**Query** Hello, I need to know if Cn1c(=O)n(-c2ccc(C(C)(C)C#N)cc2)c2c3cc(-c4cnc5ccccc5c4)ccc3ncc21 has measured drug sensitivity score not below 2 DSS. Thanks!
**Result** T

**Query** Hello, I need to know if O=C(CCCCCCNC(=O)c1cnc(N(c2ccccc2)c2ccccc2)nc1)NO has measured drug sensitivity score not below 2 DSS. Thanks!
**Result** T

**Query** Hello, I need to know if CC1(C)CC[C@]2(NC(=O)C(C)(F)F)CC[C@]3(C)[C@H](C(=O)C=C4[C@@]5(C)C=C(C#N)C(=O)C(C)(C)[C@@H]5CC[C@]43C)[C@@H]2C1 has measured drug sensitivity score not below 2 DSS. Thanks!
**Result** T

**Query** Hello, I need to know if COc1ccc(COc2cc3oc(=O)c4cc(C(C)O)ccc4c3cc2OC)cc1 (stereo not given) has measured drug sensitivity score not below 2 DSS. Thanks!
**Result** F

**Query** Hello, I need to know if CNC(=O)c1ccc(N2C(=S)N(c3cnc(C#N)c(C(F)(F)F)c3)C(=O)C23CCC3)cc1F [Apalutamide] has measured drug sensitivity score not below 2 DSS. Thanks!
**Result** F

**Query** Hello, I need to know if C#Cc1cccc(Nc2ncnc3cc(OCCOC)c(OCCOC)cc23)c1 has measured drug sensitivity score not below 2 DSS. Thanks!
**Result** T

**Query** Hello, I need to know if COc1cc(OC)cc(N(CCNC(C)C)c2ccc3ncc(-c4cnn(C)c4)nc3c2)c1 has measured drug sensitivity score not below 2 DSS. Thanks!
**Result** F

**Query** Hello, I need to know if CCCCCCCCCCCCCCCCCCOP(=O)([O-])OC1CC[N+](C)(C)CC1 has measured drug sensitivity score not below 2 DSS. Thanks!
**Result** F

**Query** Hello, I need to know if COC[C@H](NC(=O)c1cnc(C)s1)C(=O)N[C@@H](COC)C(=O)N[C@@H](Cc1ccccc1)C(=O)[C@@]1(C)CO1 has measured drug sensitivity score not below 2 DSS. Thanks!
**Result** T
